Numbers sourced from patent US20160280750A1.

Hi there, I'd appreciate the recorded % Positive Control (REVEAL binding score) for every entry that follows.
# systemUnderTest: T1, HLA-B*2705 (human, UniProt P01889 25-302 at identity 0.93))
# T1 construct: MHC class I molecule assembled with candidate peptides in the REVEAL assay (ProImmune)
# T1 MHC heavy: not shown
# protocolDescription: REVEAL MHC-peptide binding assay, incorporation into HLA-B*2705

What measured % Positive Control (REVEAL binding score) goes with RRRWRRLTV [Peptide I.D. 36 RRRWRRLTV] ? 44 % of positive control

What measured % Positive Control (REVEAL binding score) goes with ALQYLRLSH [Peptide I.D. 22 ALQYLRLSH] ? 0.13 % of positive control

What measured % Positive Control (REVEAL binding score) goes with LQDFFSSLI [Peptide I.D. 34 LQDFFSSLI] ? 0.11 % of positive control

What measured % Positive Control (REVEAL binding score) goes with RFNALQYLR [Peptide I.D. 19 RFNALQYLR] ? 1.2 % of positive control

What measured % Positive Control (REVEAL binding score) goes with SIDLQDFFS [Peptide I.D. 31 SIDLQDFFS] ? 0.26 % of positive control

What measured % Positive Control (REVEAL binding score) goes with QYLRLSHNE [Peptide I.D. 24 QYLRLSHNE] ? 0.5 % of positive control

What measured % Positive Control (REVEAL binding score) goes with FKRFNALQY [Peptide I.D. 17 FKRFNALQY] ? 0.15 % of positive control

What measured % Positive Control (REVEAL binding score) goes with KHTRRQLED [Peptide I.D. 7 KHTRRQLED] ? 0.04 % of positive control
